Ref: patent US8618111B2

Values of log10(IC50) reported for mTOR (Homo sapiens (Human)) appear below.
// do not treat as linear: log10 of IC50, unit µM

structure | log10(IC50)
CCc1ncnc(N2CCN(CCN3CCOCC3)CC2)c1C#Cc1ccc(N)nc1 | 0.20

Give its log10(IC50) value. Item: `COCCC(=O)NCC1CCN(c2ncnc(C)c2C#Cc2ccc(N)nc2)CC1`
-1.74

Same read-out for `CCc1ncnc(N2CCN(c3ncccn3)CC2)c1C#Cc1ccc(N)nc1` ?
-1.85

Same again, this time with `CCc1ncnc(N2CCC(CC(C)(C)O)CC2)c1C#Cc1ccc(N)nc1`
-2.05

Entry `Cc1ncnc(N2CCCOCC2)c1C#Cc1ccc(N)nc1` please
-1.14

Thanks! And `CCc1ncnc(N2CCC(C=C(C)C)CC2)c1C#Cc1ccc(N)nc1` ?
-1.19

Also, `Cc1ncnc(N2CCC(O)(c3ccccc3)CC2)c1C#Cc1ccc(N)nc1` please.
-1.64

What do you have for `CCc1ncnc(N2CCC(CO)CC2)c1C#Cc1ccc(C)nc1` ?
-1.15

Follow-up entry: `CCc1ncnc(N2CCCC2)c1C#Cc1ccc(N)nc1`
-1.38
